test details: Compatibility study of minocycline hydrochloride with excipients (visual inspection)
Format: physicochemical
stated conditions: summary; tested after the storage for up to 3 weeks
Procedure: Active agent is incubated with various excipients individually at one or more temperatures and at different ratios of active agent to a single excipient for a certain fixed period or to the point where degradation was suspected. […] Visual inspection is a criterion for indication of compatibility. Any change of color indicates oxidation or degradation. […] Tests are also carried out with combinations of excipients.
value type: Compatibility with Minocycline HCl

These solved cases illustrate the format of a correct answer.
>>> recorded_value("CC(C)CCCCCCCCCCCCCCC(=O)O [Isostearic acid]")
"No"
>>> recorded_value("CC(C)OC(=O)CCCCC(=O)OC(C)C [Diisopropyl adipate]")
"Yes"
>>> recorded_value("CO[C@H]1CO[C@H]2[C@@H]1OC[C@H]2OC [Dimethyl Isosorbide]")
"No"
>>> recorded_value("CC(O)CO (stereo not drawn) [Propylene glycol]")
"No"
>>> recorded_value("CCCCCCCC/C=C\\CCCCCCCCO [Oleyl alcohol]")
"Yes"

Inquiry: Let me know recorded Compatibility with Minocycline HCl for OCC(O)CO [Glycerin] , thanks.
Reply text: No
